system: ABC-1; assay: relative viability (nuclei count vs DMSO), 5 days (fraction); higher = more cells survive; settings: first compound 0.1 µM

molecule: O=c1cc(N2CCOCC2)oc2c(-c3cccc4c3sc3ccccc34)cccc12 + COc1cccc2cc(-c3nc([C@H]4CC[C@H](C(=O)O)CC4)n4ncnc(N)c34)[nH]c12 [OSI-027] (partner 0.5 µM)
relative viability: 0.557
//
molecule: O=c1cc(N2CCOCC2)oc2c(-c3cccc4c3sc3ccccc34)cccc12 + CS(=O)(=O)N1CCN(Cc2cc3nc(-c4cccc5[nH]ncc45)nc(N4CCOCC4)c3s2)CC1 [Pictilisib] (partner 1 µM)
relative viability: 0.745
//
molecule: O=c1cc(N2CCOCC2)oc2c(-c3cccc4c3sc3ccccc34)cccc12 + C[C@]1(O)C[C@@H](c2nc(-c3ccc4ccc(-c5ccccc5)nc4c3)c3c(N)nccn32)C1 [Linsitinib] (partner 1 µM)
relative viability: 0.745
//
molecule: CCN(CC)CCCCNc1ncc2cc(-c3cc(OC)cc(OC)c3)c(NC(=O)NC(C)(C)C)nc2n1 + COc1cc2c(Oc3ccc(NC(=O)C4(C(=O)Nc5ccc(F)cc5)CC4)cc3F)ccnc2cc1OCCCN1CCOCC1 [Foretinib] (partner 0.25 µM)
relative viability: 1.3

###

Below, each of the molecules is paired with its reported relative viability value.
tested on: NCI-H596; test: relative viability (nuclei count vs DMSO), 5 days (fraction); higher = more cells survive; conditions: first compound 0.1 µM

molecule: O=c1cc(N2CCOCC2)oc2c(-c3cccc4c3sc3ccccc34)cccc12 + C[C@@H](Oc1cc(-c2cnn(C3CCNCC3)c2)cnc1N)c1c(Cl)ccc(F)c1Cl [Crizotinib] (partner 1 µM)
relative viability: 0.907
//
molecule: CCN(CC)CCCCNc1ncc2cc(-c3cc(OC)cc(OC)c3)c(NC(=O)NC(C)(C)C)nc2n1 + Cc1nc(NC(=O)N2CCC[C@H]2C(N)=O)sc1-c1ccnc(C(C)(C)C(F)(F)F)c1 [Alpelisib] (partner 2 µM)
relative viability: 0.478
//
molecule: CCN(CC)CCCCNc1ncc2cc(-c3cc(OC)cc(OC)c3)c(NC(=O)NC(C)(C)C)nc2n1 + CS(=O)(=O)CCNCc1ccc(-c2ccc3ncnc(Nc4ccc(OCc5cccc(F)c5)c(Cl)c4)c3c2)o1 [Lapatinib] (partner 2 µM)
relative viability: 1.11
//
molecule: O=c1cc(N2CCOCC2)oc2c(-c3cccc4c3sc3ccccc34)cccc12 + O=C(CCCCCCC(=O)Nc1ccccc1)NO [Vorinostat] (partner 1 µM)
relative viability: 0.581

###

test system: SW 1573; assay: relative viability (nuclei count vs DMSO), 5 days (fraction); higher = more cells survive; conditions: first compound 0.253 µM
property: relative viability

compound: O=c1cc(-c2cccc3c2Sc2ccccc2S3)oc(N2CCOCC2)c1 + CCNC(=O)c1noc(-c2cc(C(C)C)c(O)cc2O)c1-c1ccc(CN2CCOCC2)cc1 [Luminespib] (partner 0.01 µM)
property: relative viability
reported.value: 0.18

compound: O=c1cc(-c2cccc3c2Sc2ccccc2S3)oc(N2CCOCC2)c1 + COc1cccc2cc(-c3nc([C@H]4CC[C@H](C(=O)O)CC4)n4ncnc(N)c34)[nH]c12 [OSI-027] (partner 0.5 µM)
property: relative viability
reported.value: 0.797

compound: COc1nc(C)cnc1NS(=O)(=O)c1cccnc1-c1ccc(-c2nnco2)cc1 [Zibotentan] + COc1cc2c(Oc3ccc(NC(=O)C4(C(=O)Nc5ccc(F)cc5)CC4)cc3F)ccnc2cc1OCCCN1CCOCC1 [Foretinib] (partner 0.25 µM)
property: relative viability
reported.value: 0.692

compound: COc1nc(C)cnc1NS(=O)(=O)c1cccnc1-c1ccc(-c2nnco2)cc1 [Zibotentan] + C[C@]1(O)C[C@@H](c2nc(-c3ccc4ccc(-c5ccccc5)nc4c3)c3c(N)nccn32)C1 [Linsitinib] (partner 1 µM)
property: relative viability
reported.value: 0.783

###

tested on: NCI-H1793; experiment: relative viability (nuclei count vs DMSO), 5 days (fraction); higher = more cells survive; conditions: first compound 6.325 µM
Param label: returns criterion met when relative viability < 0.4, returns criterion not met otherwise, including exact equality.

compound: COCC1(CO)C(=O)C2CCN1CC2 (stereo not given) [PRIMA-1MET] + CC(=O)c1c(C)c2cnc(Nc3ccc(N4CCNCC4)cn3)nc2n(C2CCCC2)c1=O [Palbociclib] (partner 0.5 µM)
class.assignment: criterion met
--
compound: COCC1(CO)C(=O)C2CCN1CC2 (stereo not given) [PRIMA-1MET] + COc1cccc2cc(-c3nc([C@H]4CC[C@H](C(=O)O)CC4)n4ncnc(N)c34)[nH]c12 [OSI-027] (partner 0.5 µM)
class.assignment: criterion met
--
compound: COCC1(CO)C(=O)C2CCN1CC2 (stereo not given) [PRIMA-1MET] + CC(=O)Nc1cccc(-n2c(=O)n(C3CC3)c(=O)c3c(Nc4ccc(I)cc4F)n(C)c(=O)c(C)c32)c1 [Trametinib] (partner 0.02 µM)
class.assignment: criterion met
--
compound: COCC1(CO)C(=O)C2CCN1CC2 (stereo not given) [PRIMA-1MET] + Nc1ncn([C@H]2C[C@H](O)[C@@H](CO)O2)c(=O)n1 [Decitabine] (partner 2 µM)
class.assignment: criterion not met
--
compound: COCC1(CO)C(=O)C2CCN1CC2 (stereo not given) [PRIMA-1MET] + N=C(N)NC(=N)NCCc1ccccc1 [Phenformin] (partner 250 µM)
class.assignment: criterion not met

###

tested on: NCI-H2126; assay: relative viability (nuclei count vs DMSO), 5 days (fraction); higher = more cells survive; settings: first compound 0.2 µM
In this section we review reported relative viability values for a set of molecules.

molecule: COCC1(CO)C(=O)C2CCN1CC2 (stereo not drawn) [PRIMA-1MET] + CC1(C)CCC(c2ccc(Cl)cc2)=C(CN2CCN(c3ccc(C(=O)NS(=O)(=O)c4ccc(N[C@H](CCN5CCOCC5)CSc5ccccc5)c(S(=O)(=O)C(F)(F)F)c4)cc3)CC2)C1 [Navitoclax] (partner 0.5 µM)
measurement.target: NCI-H2126
relative viability: 0.931
--
molecule: COCC1(CO)C(=O)C2CCN1CC2 (stereo not drawn) [PRIMA-1MET] + CS(=O)(=O)N1CCN(Cc2cc3nc(-c4cccc5[nH]ncc45)nc(N4CCOCC4)c3s2)CC1 [Pictilisib] (partner 1 µM)
measurement.target: NCI-H2126
relative viability: 0.459
--
molecule: COCC1(CO)C(=O)C2CCN1CC2 (stereo not drawn) [PRIMA-1MET] + COc1cccc2cc(-c3nc([C@H]4CC[C@H](C(=O)O)CC4)n4ncnc(N)c34)[nH]c12 [OSI-027] (partner 0.5 µM)
measurement.target: NCI-H2126
relative viability: 0.799

###

Measured relative viability, listed per entry.
system: NCI-H1623; test: relative viability (nuclei count vs DMSO), 5 days (fraction); higher = more cells survive; conditions: first compound 0.1 µM
property: relative viability

molecule: O=c1cc(N2CCOCC2)oc2c(-c3cccc4c3sc3ccccc34)cccc12 + CCNC(=O)c1noc(-c2cc(C(C)C)c(O)cc2O)c1-c1ccc(CN2CCOCC2)cc1 [Luminespib] (partner 0.01 µM)
reported.value: 0.495
--
molecule: CCN(CC)CCCCNc1ncc2cc(-c3cc(OC)cc(OC)c3)c(NC(=O)NC(C)(C)C)nc2n1 + Cc1cc(Nc2cc(N3CCN(C)CC3)nc(Sc3ccc(NC(=O)C4CC4)cc3)n2)n[nH]1 [Tozasertib] (partner 0.1 µM)
reported.value: 0.43
--
molecule: O=c1cc(N2CCOCC2)oc2c(-c3cccc4c3sc3ccccc34)cccc12 + COc1cc2c(Oc3ccc(NC(=O)C4(C(=O)Nc5ccc(F)cc5)CC4)cc3F)ccnc2cc1OCCCN1CCOCC1 [Foretinib] (partner 0.25 µM)
reported.value: 0.559

###

// reported relative viability for each item listed
system: A549; experiment: relative viability (nuclei count vs DMSO), 5 days (fraction); higher = more cells survive; settings: first compound 0.3162 µM

molecule: CCN(CC)CCCCNc1ncc2cc(-c3cc(OC)cc(OC)c3)c(NC(=O)NC(C)(C)C)nc2n1 + C[C@]1(O)C[C@@H](c2nc(-c3ccc4ccc(-c5ccccc5)nc4c3)c3c(N)nccn32)C1 [Linsitinib] (partner 1 µM)
relative viability: 0.636

molecule: O=c1cc(N2CCOCC2)oc2c(-c3cccc4c3sc3ccccc34)cccc12 + N=C(N)NC(=N)NCCc1ccccc1 [Phenformin] (partner 250 µM)
relative viability: 0.167

molecule: O=c1cc(N2CCOCC2)oc2c(-c3cccc4c3sc3ccccc34)cccc12 + C[C@]1(O)C[C@@H](c2nc(-c3ccc4ccc(-c5ccccc5)nc4c3)c3c(N)nccn32)C1 [Linsitinib] (partner 1 µM)
relative viability: 0.663

molecule: O=c1cc(N2CCOCC2)oc2c(-c3cccc4c3sc3ccccc34)cccc12 + CC1(C)CCC(c2ccc(Cl)cc2)=C(CN2CCN(c3ccc(C(=O)NS(=O)(=O)c4ccc(N[C@H](CCN5CCOCC5)CSc5ccccc5)c(S(=O)(=O)C(F)(F)F)c4)cc3)CC2)C1 [Navitoclax] (partner 0.5 µM)
relative viability: 1.23
